Below, each entry is listed with its recorded pIC50.
# Tested on: 92.1 cells (GNAQ Q209L mutation)
# test_protocol: Cell proliferation inhibition assay
# Type: cell-based
# condition_label: 72 h, read-out: Antiproliferation (IC50, μmol/L) 92.1
pIC50: −log10 of the molar value.

molecular_string: NCCC[C@H](N)CN1CCn2cc(-c3ccccc3)nc2[C@@H]1CC1CCCCC1
target_of_assay: 92.1 cells (GNAQ Q209L mutation)
pIC50: 5.01
//
molecular_string: CC[C@H](C)[C@H](N)C(=O)N1CCn2cc(C3CCC(C)(C)CC3)nc2[C@@H]1CC1CCCCC1
target_of_assay: 92.1 cells (GNAQ Q209L mutation)
pIC50: 4.79
//
molecular_string: N[C@@H](Cc1ccccc1)CN1CCn2cc(-c3ccccc3)nc2[C@@H]1CC1CCCCC1
target_of_assay: 92.1 cells (GNAQ Q209L mutation)
pIC50: 4.94
//
molecular_string: CC(C)C[C@H](N)CN1CCn2cc(-c3ccccc3)nc2[C@@H]1CC1CCCCC1
target_of_assay: 92.1 cells (GNAQ Q209L mutation)
pIC50: 5.24
//
molecular_string: NCCN1CCn2cc(-c3ccccc3)nc2[C@@H]1CC1CCCCC1
target_of_assay: 92.1 cells (GNAQ Q209L mutation)
pIC50: 5.02

###

# Tested on: 92.1 cells (GNAQ Q209L mutation)
# test_protocol: Cell proliferation inhibition assay
# Type: cell-based
# condition_label: 72 h, read-out: Antiproliferation (IC50, μmol/L) 92.1
pIC50: −log10 of the molar value.

molecular_string: N[C@H](CS)CN1CCn2cc(-c3ccccc3)nc2[C@@H]1CC1CCCCC1
sign: =
pIC50: 4.80
//
molecular_string: N=C(N)NCCC[C@H](N)CN1CCn2cc(-c3ccccc3)nc2[C@@H]1CC1CCCCC1
sign: <
pIC50: 4.40
//
molecular_string: c1ccc(-c2cn3c(n2)[C@H](CC2CCCCC2)N(C[C@@H]2CCCCN2)CC3)cc1
sign: =
pIC50: 4.96
//
molecular_string: CC[C@H](C)[C@H](N)C(=O)N1CCn2cc(-c3ccoc3)nc2[C@@H]1CC1CCCCC1
sign: <
pIC50: 4.40
//
molecular_string: N[C@H](CO)CN1CCn2cc(-c3ccccc3)nc2[C@@H]1CC1CCCCC1
sign: =
pIC50: 4.96
//
molecular_string: N[C@@H](CC1CCCCC1)CN1CCn2cc(-c3ccccc3)nc2[C@@H]1CC1CCCCC1
sign: =
pIC50: 5.05
//
molecular_string: CC[C@H](C)[C@H](N)CN1CCn2cc(-c3ccccc3)nc2[C@@H]1CC1CCCCC1
sign: =
pIC50: 5.03
//
molecular_string: CC[C@H](C)[C@H](N)C(=O)N1CCn2cc(C3CCOCC3)nc2[C@@H]1CC1CCCCC1
sign: <
pIC50: 4.40

###

# Test system: 92.1 cells (GNAQ Q209L mutation)
# test_protocol: Cell proliferation inhibition assay
# Assay type: cell-based
# condition_label: 72 h, read-out: Antiproliferation (IC50, μmol/L) 92.1
pIC50: −log10 of the molar value.
Kindly return t if reported pIC50 is no lower than 5; return f if it is lower.

molecular_string: CSCC[C@H](N)CN1CCn2cc(-c3ccccc3)nc2[C@@H]1CC1CCCCC1
cat: t
--
molecular_string: CC[C@H](C)[C@H](N)C(=O)N1CCn2cc(C3=CCCCC3)nc2[C@@H]1CC1CCCCC1
cat: f
--
molecular_string: CC[C@H](C)[C@H](N)C(=O)N1CCn2cc(C3CCCC3)nc2[C@@H]1CC1CCCCC1
cat: f
--
molecular_string: CC[C@H](C)[C@H](N)C(=O)N1CCn2cc(-c3ccncc3)nc2[C@@H]1CC1CCCCC1
cat: f
--
molecular_string: CC[C@H](C)[C@H](N)C(=O)N1CCn2cc(-c3cccs3)nc2[C@@H]1CC1CCCCC1
cat: f
--
molecular_string: CCc1cn2c(n1)[C@H](CC1CCCCC1)N(C(=O)[C@@H](N)[C@@H](C)CC)CC2
cat: f
--
molecular_string: CC[C@H](N)CN1CCn2cc(-c3ccccc3)nc2[C@@H]1CC1CCCCC1
cat: t

###

# test_protocol: Pharmacokinetic studies in ICR mice
# Format: in vivo
# condition_label: male, mouse, plasma, po, 15 mg/kg

molecular_string: CN1CCC[C@H]1CN1CCn2cc(-c3ccccc3)nc2[C@@H]1CC1CCCCC1
MRT [h]: 3.1

###

# test_protocol: Pharmacokinetic studies in ICR mice
# Assay type: in vivo
# condition_label: male, mouse, plasma, iv, 5 mg/kg
quantity_kind: MRT (h)

molecular_string: CN1CCC[C@H]1CN1CCn2cc(-c3ccccc3)nc2[C@@H]1CC1CCCCC1
recorded_number: 1.1

###

# System: 92.1 cells (GNAQ Q209L mutation)
# test_protocol: Cell proliferation inhibition assay
# Assay type: cell-based
# condition_label: 72 h, read-out: Antiproliferation (IC50, μmol/L) 92.1
pIC50: −log10 of the molar value.
Below, each entry is listed with its recorded pIC50.
quantity_kind: pIC50

compound: CC[C@H](C)[C@H](N)C(=O)N1CCn2cc(-c3nccs3)nc2[C@@H]1CC1CCCCC1 [GQ226]
quantity_kind: pIC50
sign: <
recorded_number: 4.40
--
compound: CC[C@H](C)[C@H](N)C(=O)N1CCn2cc(C3CCNCC3)nc2[C@@H]1CC1CCCCC1 [GQ230]
quantity_kind: pIC50
sign: <
recorded_number: 4.40
--
compound: CCC[C@H](N)CN1CCn2cc(-c3ccccc3)nc2[C@@H]1CC1CCCCC1 [GQ242]
quantity_kind: pIC50
sign: =
recorded_number: 5.33
--
compound: N[C@@H](CCO)CN1CCn2cc(-c3ccccc3)nc2[C@@H]1CC1CCCCC1 [GQ250]
quantity_kind: pIC50
sign: =
recorded_number: 4.98
--
compound: N[C@H](CN1CCn2cc(-c3ccccc3)nc2[C@@H]1CC1CCCCC1)C1CCCCC1 [GQ245]
quantity_kind: pIC50
sign: =
recorded_number: 5.24
--
compound: CC(C)[C@H](N)CN1CCn2cc(-c3ccccc3)nc2[C@@H]1CC1CCCCC1 [GQ238]
quantity_kind: pIC50
sign: =
recorded_number: 5.14
--
compound: CC(C)C[C@@H]1c2nc(-c3ccccc3)cn2CCN1C[C@@H]1CCCN1C [GQ266]
quantity_kind: pIC50
sign: <
recorded_number: 4.40
--
compound: NCC[C@H](N)CN1CCn2cc(-c3ccccc3)nc2[C@@H]1CC1CCCCC1 [GQ252]
quantity_kind: pIC50
sign: =
recorded_number: 5.46
--
compound: CC[C@H](C)[C@H](N)C(=O)N1CCn2cc(-c3ccco3)nc2[C@@H]1CC1CCCCC1 [GQ223]
quantity_kind: pIC50
sign: <
recorded_number: 4.40
--
compound: N[C@@H](CCCO)CN1CCn2cc(-c3ccccc3)nc2[C@@H]1CC1CCCCC1 [GQ251]
quantity_kind: pIC50
sign: =
recorded_number: 4.90
--
compound: CC[C@H](C)[C@H](N)C(=O)N1CCn2cc(-c3cccnc3)nc2[C@@H]1CC1CCCCC1 [GQ221]
quantity_kind: pIC50
sign: <
recorded_number: 4.40
--
compound: N[C@@H](Cc1c[nH]c2ccccc12)CN1CCn2cc(-c3ccccc3)nc2[C@@H]1CC1CCCCC1 [GQ257]
quantity_kind: pIC50
sign: =
recorded_number: 5.02
--
compound: CC(C)[C@@H]1c2nc(-c3ccccc3)cn2CCN1C[C@@H]1CCCN1C [GQ265]
quantity_kind: pIC50
sign: <
recorded_number: 4.40
--
compound: N[C@@H](Cc1ccc(O)cc1)CN1CCn2cc(-c3ccccc3)nc2[C@@H]1CC1CCCCC1 [GQ256]
quantity_kind: pIC50
sign: =
recorded_number: 5.06
--
compound: CN1CCC[C@H]1CN1CCn2cc(-c3ccccc3)nc2[C@@H]1C1CCCCC1 [GQ267]
quantity_kind: pIC50
sign: <
recorded_number: 4.40
--
compound: C[C@H](N)CN1CCn2cc(-c3ccccc3)nc2[C@@H]1CC1CCCCC1 [GQ239]
quantity_kind: pIC50
sign: =
recorded_number: 4.94
